test: yeast display, Sf9 membrane polyspecificity reagent, FACS + sequencing; frameworks hold sequencing errors
test_readout: polyreactivity (PSR sort gate)

Below are worked cases with known answers.
QUERY: What value of polyreactivity (PSR sort gate) has been recorded for this entry: QVQLVESGGGLVQAGGSHRLSCASSGSTFLPNAMGWYRQPPGKERELVAAITNSGGNTYADSVKGRFTISRDNAKNTVYLEMNSLKPEDTAVYYCNARFSPTGWARGNDYWGQGTQVTVSS
RESULT: low polyreactivity

QUERY: What value of polyreactivity (PSR sort gate) has been recorded for this entry: QVQLVESGGGLVQAGGSLRLSCAASGRIFASYVMGWYSQAPGKERELVAAISRSGVSTYYADSVKGRFTISRDNEKNTVYLQINSLIPEDTAVYYCATTRFPRSFQEFGYWGQGTQVNVSS
RESULT: high polyreactivity

QUERY: What value of polyreactivity (PSR sort gate) has been recorded for this entry: QVQLVESGGGLVQAGGSLRLSCAASGSTYRYVMGWYRQAPGKERELVAAITYTGGSTYYADSVKGRFTISRDNAKNTVYLQMNSLKPEDTAVYYCAASRYYTFDYWGQGTQVTVSS
RESULT: high polyreactivity

QUERY: What value of polyreactivity (PSR sort gate) has been recorded for this entry: QVQLVQSGGGLVQAGGSLRLSCAASGSTFYVYAMGWYRQAPGKEREFVAAISRSGGRTYYAVSVKGRFTISRDNAKNTVYLQMNSLKPEDTAVYYCNARDSLRYYTYYFEDYRVGYDYWGQGTQVTVSS
RESULT: high polyreactivity

Now for the sequence whose polyreactivity (PSR sort gate) we want.
QUERY: What value of polyreactivity (PSR sort gate) has been recorded for this entry: QVQLVESGGGLVQAGGSLRLTCAASGRIFYNYAMGWYRQAPGKERELLAAISGSGGSTYYADSVKGRFTISRDNAKNSVYLQMNSLKPEDTAVYYCSTSCPQYYSRNFDYWGQGTQVTVSS
RESULT: low polyreactivity

* * *

assay: yeast display, Sf9 membrane polyspecificity reagent, FACS + sequencing; frameworks hold sequencing errors
test_readout: polyreactivity (PSR sort gate)

Below are worked cases with known answers.
QUERY: What value of polyreactivity (PSR sort gate) has been recorded for this entry: QVPLVESGGGLVQAGGSLRLSCAASGSIFWTYTIGWYRKAPGKERELVAAITSSGSTNFADSVKGRFTISRDNAKKTVYLQMNSLKPADTAVYYCAADPEYRGYQRYDYWGQGTQVTVSS
RESULT: low polyreactivity

QUERY: What value of polyreactivity (PSR sort gate) has been recorded for this entry: QVQLVESGGGLVQAGGSLRLSCAASGRTFNWYAMGWYRQAPGKERELVAAIRVNGGITYYADSVKGRFTISRDNAKNTVYLQMISLKPEDTAVYYCAVYSRQGLGYWGQGTQVTVSS
RESULT: high polyreactivity

QUERY: What value of polyreactivity (PSR sort gate) has been recorded for this entry: QVQLVESGGGLVQAGGSLRLSCAASGSIFRYYAMGWYRQAPGKERELVAAISIRGGRTYYADSVKGRFTISRDNAKNTVYLQMNSLKPEDTAVYYCATAFGFTAKYYYWGQGTQVTVSS
RESULT: high polyreactivity

QUERY: What value of polyreactivity (PSR sort gate) has been recorded for this entry: QVQLVESGGGLVQAGGSLRLSCAASGIIIYDYAMGWYRHAPGKERELVAAISRSGGSTYYADSVKGRFTISRDNAKYTVYLQMNSLKPDDTAVYYCNADEVVWGYNYWGQGTQVTVSS
RESULT: low polyreactivity

QUERY: What value of polyreactivity (PSR sort gate) has been recorded for this entry: QVQLVESGGGLVQAGGSLRLSCAAYGFFYNAMGWYRPAPGKERELVAAISWSGASTYYADSVKGRFTISRDNAKNTVYLQMNSLKPEDTAVFYCNADPRLRQTRDYWGQGTQVSVSS
RESULT: high polyreactivity

QUERY: What value of polyreactivity (PSR sort gate) has been recorded for this entry: QVQLVESGGGLVQAGGSLRLSCAASGSTFIVNAMGWYRQAPGKERELVAAITGGGGSTYYADSVKGRFTISRDNAKNTVYLQMNSLKPEDTAVDYCAARIQYAFGADYYWGQGTQVTVSS
RESULT: low polyreactivity

Others:
QUERY: What value of polyreactivity (PSR sort gate) has been recorded for this entry: QVQLVESGGGLVQAGGSLRLSCAASGSIFKWNAMGWYRQAPGKEWELVAAITWSGGRTYYADSVKGRFTISRDNAKNTVYLQMNSLKPEDTAVYYCAATQYRSDGWRYDYWGQGTQVTVSS
RESULT: high polyreactivity

QUERY: What value of polyreactivity (PSR sort gate) has been recorded for this entry: QVQLVESGGGLVQAGGSLRLSCAASGRIFYWYAMGWYRQAPGKERELVAAISSAGTTYYADSVKGRFTISRDNAKNTVYLQMNSLKPEDTAVYYCAATLGFYRRSEYDYWGQGTQVTVSS
RESULT: high polyreactivity

QUERY: What value of polyreactivity (PSR sort gate) has been recorded for this entry: QVQLVESGGGLVQAGGSLRLICAASGITFVYYAMGWYRQAPGKERELVAAISKNSGSTYYADSVKGRFTISRDNAKNTVYLQKNSLNPEDTAVYYCAAEEGYPWVRYNYWGQGTQVTVSS
RESULT: high polyreactivity

QUERY: What value of polyreactivity (PSR sort gate) has been recorded for this entry: QVQLVESGGGLVQAGGSLRLSCAASGSIFGKDAMVWYRQAPGKEREFVAGIRGSGTRTYYADSVKGRFTISRDNAKNTVYLQLNSLKPEDTAVYYCNAVFGYRGPYYYWGQGTQVTVSS
RESULT: high polyreactivity

QUERY: What value of polyreactivity (PSR sort gate) has been recorded for this entry: QVQLVESGGGLVQAGGSLRLSCAASGSTFEYYAMGWYRQAPGKERELVATISIDGRTNYADSVKGRFTISRDNAKNTVYLQMNSLKPEDTAVYYCAADTNWSPGYIMYYRSDYWGQGTQVTVSS
RESULT: low polyreactivity

QUERY: What value of polyreactivity (PSR sort gate) has been recorded for this entry: QVQLVESGGGLVQAGGSLRLSCAASGSIFGYNTMGLYRKAPGKERELVAAISYRGGSTYADSVKGRFTISRDNAKNTVYLQMNSLKPVDTAVYYCDKRSIVGYRYSGYDYCGQGTQVTVSS
RESULT: high polyreactivity

QUERY: What value of polyreactivity (PSR sort gate) has been recorded for this entry: QGQRVESGGGLVQAGGSLRLSCAGSGSTCVGYTMGWYRQAPGKERELVAAITSSDGSTYYADSVKGRFTISRDNAKNTVYLQMNSQKPEDTAVYYCAQTTRYPRGYGYWGQGTQVTVSS
RESULT: low polyreactivity

QUERY: What value of polyreactivity (PSR sort gate) has been recorded for this entry: QVQLVETGGVLVQAGGSLRLSCAASGRIFFYYVMGWYRQAPGKERELVAGITRGGITNYADSVKGRLTISRDNAKNTVYLQMNSLKPEDTAVYYCKARAPSYYRYRASAAYDYWGLGTQVTVSS
RESULT: high polyreactivity

QUERY: What value of polyreactivity (PSR sort gate) has been recorded for this entry: QVQLVESGGGLVQAGGSLRLSCAASGGTFWLYTMGWYRQAPGTERELVAAITKSGGSTYYADSVKGRFTISRDNAMNTVYLQMNSLKPEDTAVYYCAARYSVYRDGYYWGQGTQVTVSS
RESULT: high polyreactivity

QUERY: What value of polyreactivity (PSR sort gate) has been recorded for this entry: QVQLVESGGGLVQAGGSLRLSCAASGGILETNAMGWYRQAPGKERELVAAIDFSAGSTYYADSVKGRFTISRDNAKNTVYLQMNSLKPEDTAVYYCATRLGVLYDYWGQGTQVTVSS
RESULT: low polyreactivity

QUERY: What value of polyreactivity (PSR sort gate) has been recorded for this entry: QVQLVESGGGLVQAGGSLRLSCAASGRTFVPYAMGWYRQAPGKERELVAAISYSGDSTYYADSVKGRFTISRDNAKNTVYLQMNSLKPEDTAVYYCAARGGNPFYYWGQGTQVTVSS
RESULT: low polyreactivity

QUERY: What value of polyreactivity (PSR sort gate) has been recorded for this entry: QVQLVESGGGLVQAGGSLRLSCAASGSTFLYYAMGWYREAPGKERELVAVISWSGVSTYYADSVKGRFTISRDNAKNTVYLQMKSLKPEDTAVYYCNTGNHYIRTYGYWGQGTQVTVSS
RESULT: low polyreactivity

* * *

experiment: yeast display, Sf9 membrane polyspecificity reagent, FACS + sequencing; frameworks hold sequencing errors
test_readout: polyreactivity (PSR sort gate)

QUERY: What value of polyreactivity (PSR sort gate) has been recorded for this entry: QVQLVESGGGLVQAGGSLRLSCAASGLIFTWNAMGWYRQAPGKEREFVAAISTGGSTSYADSVKGRFTISRDNAKNTVYLQMNRLKPEDTAVYYCARDSSIWSHGSWYDYWGQGTQVTVSS
RESULT: low polyreactivity

QUERY: What value of polyreactivity (PSR sort gate) has been recorded for this entry: QVQLVESGGGLVQAGGSLRLSCAASGIIFYHNALGWYRQAPGKERELVASITEIGGSTYYADSVKGRFTISRDNEKNTVYLQMNSLKPEDTAVYYCARDWRNKWFGYWGLGTQVTVSS
RESULT: low polyreactivity

Data provenance: the nanobody polyreactivity screen of Harvey et al. (2022)
